assay: physchem; conditions: water, pH 2
Description: Solubility in water at pH 2 at 0.1 to 10 mg
MEASUREMENT NAME: solubility (µg/mL)
Give the quantity in µg/mL, number only.

CHEM SMILES	MEAS VALUE
Cc1cc(/C=C/C#N)cc(C)c1Oc1nc(Nc2ccc(CN3CCN(S(N)(=O)=O)CC3)cc2)nc2sccc12	64.9

// next entry
Looking for the measured solubility of Cc1cc(/C=C/C#N)cc(C)c1Oc1nc(Nc2ccc(CN3CCN(S(N)(=O)=O)CC3)cc2)nc2ccsc12 , can you help?
73.1

====

target: Human immunodeficiency virus type 1 reverse transcriptase (Human immunodeficiency virus 1)
pIC50: −log10 of the molar value.
Classification field: Satisfied = pIC50 at or over 6; Not satisfied = pIC50 under 6.

Solved entries:
COMPOUND	CAT
Cc1cc(/C=C/C#N)cc(C)c1Oc1nc(Nc2ccc(CN3CCN(S(C)(=O)=O)CC3)cc2)nc2sccc12	Satisfied
Cc1cc(/C=C/C#N)cc(C)c1Oc1nc(Nc2ccc(CN3CCN(S(N)(=O)=O)CC3)cc2)nc2sccc12	Satisfied
Cc1cc(/C=C/C#N)cc(C)c1Oc1nc(Nc2ccc(CN3CCNCC3)cc2)nc2sccc12	Satisfied

Next up:
Is it the case that Cc1cc(/C=C/C#N)cc(C)c1Oc1nc(Nc2ccc(N3CCCC(NS(N)(=O)=O)C3)cc2)nc2sccc12 (stereo unspecified) has pIC50 reaching or exceeding 6?
Not satisfied
